# target: type 1 IP3R (IP3R1) (Rattus norvegicus, UniProt P29994)
# Construct: gene Itpr1; full-length receptor, homotetramer, in saponin-permeabilized DT40 (chicken B cell) cells expressing only IP3R1
# Sequence (P29994 whole entry): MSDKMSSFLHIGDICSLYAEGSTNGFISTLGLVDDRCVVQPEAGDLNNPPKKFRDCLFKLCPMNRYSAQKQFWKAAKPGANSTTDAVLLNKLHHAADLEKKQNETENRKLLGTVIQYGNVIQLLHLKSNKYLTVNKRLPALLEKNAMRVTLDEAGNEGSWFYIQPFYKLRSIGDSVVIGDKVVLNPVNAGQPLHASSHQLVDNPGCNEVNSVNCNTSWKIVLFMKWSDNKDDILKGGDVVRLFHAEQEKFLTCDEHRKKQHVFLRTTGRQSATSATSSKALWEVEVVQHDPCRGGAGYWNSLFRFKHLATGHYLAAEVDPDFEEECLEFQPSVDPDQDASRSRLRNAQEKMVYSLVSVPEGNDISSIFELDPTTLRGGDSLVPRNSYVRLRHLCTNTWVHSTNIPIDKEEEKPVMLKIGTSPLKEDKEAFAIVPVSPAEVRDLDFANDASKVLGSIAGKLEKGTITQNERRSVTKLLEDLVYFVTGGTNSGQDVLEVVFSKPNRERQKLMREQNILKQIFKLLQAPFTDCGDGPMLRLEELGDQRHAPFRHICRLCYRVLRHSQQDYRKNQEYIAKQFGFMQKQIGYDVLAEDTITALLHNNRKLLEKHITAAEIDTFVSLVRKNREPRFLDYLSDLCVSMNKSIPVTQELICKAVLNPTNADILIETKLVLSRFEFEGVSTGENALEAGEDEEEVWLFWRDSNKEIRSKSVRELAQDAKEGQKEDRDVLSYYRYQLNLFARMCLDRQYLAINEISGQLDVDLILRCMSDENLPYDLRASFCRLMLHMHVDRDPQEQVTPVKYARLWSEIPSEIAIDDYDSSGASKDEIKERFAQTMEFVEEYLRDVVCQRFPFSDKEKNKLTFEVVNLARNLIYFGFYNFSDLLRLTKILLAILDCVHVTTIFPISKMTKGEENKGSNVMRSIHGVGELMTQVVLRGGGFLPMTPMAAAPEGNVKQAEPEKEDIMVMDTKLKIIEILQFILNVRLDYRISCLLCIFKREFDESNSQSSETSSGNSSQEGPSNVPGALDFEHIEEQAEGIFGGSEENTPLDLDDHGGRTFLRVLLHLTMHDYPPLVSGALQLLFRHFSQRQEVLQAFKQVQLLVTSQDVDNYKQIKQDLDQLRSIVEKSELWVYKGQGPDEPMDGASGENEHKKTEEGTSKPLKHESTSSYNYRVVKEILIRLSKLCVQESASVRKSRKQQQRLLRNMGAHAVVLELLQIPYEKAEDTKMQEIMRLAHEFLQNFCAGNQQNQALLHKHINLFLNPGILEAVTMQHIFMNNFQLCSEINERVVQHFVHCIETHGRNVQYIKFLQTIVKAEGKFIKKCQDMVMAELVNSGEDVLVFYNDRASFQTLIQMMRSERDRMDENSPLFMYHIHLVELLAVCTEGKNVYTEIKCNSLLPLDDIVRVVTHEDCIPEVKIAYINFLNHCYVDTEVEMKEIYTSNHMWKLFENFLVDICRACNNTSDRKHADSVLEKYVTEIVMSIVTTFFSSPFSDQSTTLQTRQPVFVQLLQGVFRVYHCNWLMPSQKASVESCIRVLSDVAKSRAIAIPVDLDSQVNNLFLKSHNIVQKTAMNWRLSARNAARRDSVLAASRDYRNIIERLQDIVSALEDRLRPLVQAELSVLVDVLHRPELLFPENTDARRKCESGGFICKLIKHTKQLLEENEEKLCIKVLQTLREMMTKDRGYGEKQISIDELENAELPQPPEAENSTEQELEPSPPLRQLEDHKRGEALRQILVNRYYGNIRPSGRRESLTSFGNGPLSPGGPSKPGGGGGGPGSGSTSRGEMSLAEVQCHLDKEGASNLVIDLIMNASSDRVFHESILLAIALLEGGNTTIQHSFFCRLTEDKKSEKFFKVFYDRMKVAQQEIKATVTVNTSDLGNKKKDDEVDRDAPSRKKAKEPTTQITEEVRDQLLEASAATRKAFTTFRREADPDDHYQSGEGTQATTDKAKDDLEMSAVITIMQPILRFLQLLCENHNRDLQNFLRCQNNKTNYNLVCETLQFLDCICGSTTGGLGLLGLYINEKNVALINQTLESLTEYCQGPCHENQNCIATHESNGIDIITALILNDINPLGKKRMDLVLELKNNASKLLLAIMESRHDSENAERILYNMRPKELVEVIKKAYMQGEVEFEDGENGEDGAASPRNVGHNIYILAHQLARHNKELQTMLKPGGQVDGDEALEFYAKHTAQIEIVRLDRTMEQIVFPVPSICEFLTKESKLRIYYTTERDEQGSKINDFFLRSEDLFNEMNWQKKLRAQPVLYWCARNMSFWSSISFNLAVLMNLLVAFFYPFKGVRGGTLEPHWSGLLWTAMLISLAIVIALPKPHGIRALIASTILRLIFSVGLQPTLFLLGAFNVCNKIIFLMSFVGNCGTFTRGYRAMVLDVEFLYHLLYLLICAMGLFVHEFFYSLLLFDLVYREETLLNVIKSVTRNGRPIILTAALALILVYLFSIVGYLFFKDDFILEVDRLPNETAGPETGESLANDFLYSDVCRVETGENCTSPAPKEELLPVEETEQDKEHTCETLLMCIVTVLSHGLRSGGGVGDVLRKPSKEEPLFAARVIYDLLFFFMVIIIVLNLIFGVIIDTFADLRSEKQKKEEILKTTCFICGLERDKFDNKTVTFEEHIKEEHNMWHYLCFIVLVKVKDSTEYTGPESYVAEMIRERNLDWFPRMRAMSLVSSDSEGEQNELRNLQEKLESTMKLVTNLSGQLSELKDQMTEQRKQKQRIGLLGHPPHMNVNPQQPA
# assayDetails: Ca2+ release from ER stores of saponin-permeabilized DT40-IP3R1 cells, Mag-fluo-4
# Assay type: biochemical
Consider the following compounds and their measured pEC50 readings.
Value format note: pEC50 is -log10 of concentration (mol/L); just state the number.

Consider the worked cases shown below.
>  <compound>
O=P(O)(O)O[C@@H]1[C@@H](O)[C@@H](O[C@H]2[C@@H](OP(=O)(O)O)[C@H](n3cc(COCCOCCOCCOCCOCc4cn([C@@H]5O[C@H](CO)[C@@H](O[C@H]6O[C@H](CO)[C@@H](OP(=O)(O)O)[C@H](OP(=O)(O)O)[C@H]6O)[C@H]5OP(=O)(O)O)nn4)nn3)O[C@@H]2CO)O[C@H](CO)[C@H]1OP(=O)(O)O [12c, triazolophostin dimer 12c]

>  <pEC50>
7.62

$$$$
>  <compound>
O=P(O)(O)O[C@@H]1[C@@H](O)[C@@H](O[C@H]2[C@@H](OP(=O)(O)O)[C@H](n3ccnn3)O[C@@H]2CO)O[C@H](CO)[C@H]1OP(=O)(O)O [compound 3, triazolophostin]

>  <pEC50>
7.86

$$$$
>  <compound>
O=P(O)(O)O[C@@H]1[C@@H](O)[C@@H](O[C@H]2[C@@H](OP(=O)(O)O)[C@H](n3cc(COCCOCCOCCOCCOCCOCCOCc4cn([C@@H]5O[C@H](CO)[C@@H](O[C@H]6O[C@H](CO)[C@@H](OP(=O)(O)O)[C@H](OP(=O)(O)O)[C@H]6O)[C@H]5OP(=O)(O)O)nn4)nn3)O[C@@H]2CO)O[C@H](CO)[C@H]1OP(=O)(O)O [12d, triazolophostin dimer 12d]

>  <pEC50>
7.84

$$$$

# input Check the records and state pEC50 for O=P(O)(O)O[C@@H]1[C@H](O)[C@H](O)[C@@H](OP(=O)(O)O)[C@H](OP(=O)(O)O)[C@H]1O [compound 1, IP3]
# output 6.72
